Documented IC50 across a set of compounds
# assay-system: human CD73 (Homo sapiens)
# Sequence (P21589 27-549): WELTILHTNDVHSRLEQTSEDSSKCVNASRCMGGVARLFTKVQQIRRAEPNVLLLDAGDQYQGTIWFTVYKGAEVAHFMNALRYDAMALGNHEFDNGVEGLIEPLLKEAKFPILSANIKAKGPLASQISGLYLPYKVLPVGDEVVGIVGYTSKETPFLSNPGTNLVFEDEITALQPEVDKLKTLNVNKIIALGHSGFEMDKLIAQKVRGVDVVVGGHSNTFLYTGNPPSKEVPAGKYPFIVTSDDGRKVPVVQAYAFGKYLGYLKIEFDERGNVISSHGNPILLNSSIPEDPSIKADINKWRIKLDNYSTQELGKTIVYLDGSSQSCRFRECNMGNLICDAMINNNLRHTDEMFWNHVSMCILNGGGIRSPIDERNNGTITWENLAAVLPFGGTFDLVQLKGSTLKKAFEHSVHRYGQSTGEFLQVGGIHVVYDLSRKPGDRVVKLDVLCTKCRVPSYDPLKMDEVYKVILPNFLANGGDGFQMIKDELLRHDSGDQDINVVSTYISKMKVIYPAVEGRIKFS
# procedure-details: Inhibitor activity against CD73 in cell based assay (CD73 expressing CHO-K1 cells)
# assay-conditions: CHO-K1 cells expressing human CD73, 150 μM AMP, 4 hours of incubation; read-out: CHO-K1 CELL VARIANT: CD73 IC50
assay-readout: IC50

>>> result("O=C(NC1CCC(F)(F)CC1)O[C@@H]1CCN(c2cnn(CCO)c(=O)c2Cl)C1 [P-0287]")
"0.001 to 10 µM"
>>> result("O=C(N[C@H]1CC[C@H](NC(=O)c2cccnc2)CC1)O[C@@H]1CCN(c2cn[nH]c(=O)c2Cl)C1 [P-0256]")
"0.001 to 10 µM"
>>> result("O=C(NC1CCN(C(=O)C2(c3cccc(Br)c3)CC2)CC1)O[C@@H]1CCN(c2cn[nH]c(=O)c2Cl)C1 [P-0465]")
"0.001 to 10 µM"
>>> result("O=C(N[C@H]1CC[C@@H](NS(=O)(=O)c2ccc(F)cc2)CC1)O[C@@H]1CCN(c2cn[nH]c(=O)c2Cl)C1 [P-0185]")
"0.001 to 10 µM"
>>> result("Cc1ccc(S(=O)(=O)N[C@H]2CC[C@H](NC(=O)O[C@@H]3CCN(c4cn[nH]c(=O)c4Cl)C3)CC2)cc1 [P-0293]")
"0.001 to 10 µM"
>>> result("O=C(NC1CCN(C(=O)Nc2ncccc2F)CC1)O[C@@H]1CCN(c2cn[nH]c(=O)c2Cl)C1 [P-0438]")
"0.001 to 10 µM"
>>> result("O=C(NC1CCN(C(=O)C2CCC2)CC1)O[C@@H]1CCN(c2cn[nH]c(=O)c2Cl)C1 [P-0370]")
"0.001 to 10 µM"
>>> result("C[C@@H]1C[C@@H](OC(=O)NC2CCC(F)(F)CC2)CN1c1cn[nH]c(=O)c1Cl [P-0337]")
"10 to 100 µM"
>>> result("C[C@@H]1CCCC[C@@H]1NC(=O)O[C@@H]1CCN(c2cn[nH]c(=O)c2Cl)C1 [P-0288]")
"0.001 to 10 µM"
>>> result("NCCn1ncc(N2CC[C@@H](OC(=O)NC3CCCC3)C2)c(Cl)c1=O [P-0415]")
"0.001 to 10 µM"
>>> result("O=C(NC1CC2CCC2C1)O[C@@H]1CCN(c2cn[nH]c(=O)c2Cl)C1 (stereo partly shown) [P-0446]")
"0.001 to 10 µM"
>>> result("O=C(NC1CCC(F)(F)CC1)O[C@@H]1CCN(c2cnn(CC(O)CO)c(=O)c2Cl)C1 (stereo partly shown) [P-0246]")
"0.001 to 10 µM"
>>> result("CC(C)N1CCC(NC(=O)O[C@@H]2CCN(c3cn[nH]c(=O)c3Cl)C2)CC1 [P-0122]")
"0.001 to 10 µM"
>>> result("O=C(NC1CCN(C(=O)Nc2ccc(OC(F)(F)F)cc2)CC1)O[C@@H]1CCN(c2cn[nH]c(=O)c2Cl)C1 [P-0492]")
"0.001 to 10 µM"
>>> result("CC1(NC(=O)O[C@@H]2CCN(c3cn[nH]c(=O)c3Cl)C2)CCCC1 [P-0405]")
"0.001 to 10 µM"
>>> result("O=C(NC1CCCCCC1)O[C@@H]1CCN(c2cn[nH]c(=O)c2Cl)C1 [P-0205]")
"0.001 to 10 µM"

Ref: patent US12509444B2
